Where do these numbers come from? They come from PubChem BioAssay (NCI).

test system: PC-3 prostate; experiment: NCI tumour cell line growth inhibition, 48 h
TGI values, listed per item
Hi! Could you send only the number? It should be in µM, unit omitted.

Below, each entry is followed by its recorded TGI result.
molecule	studyTarget	endpointUnit	TGI
Nc1nc(N)c(C=Nc2ccc(Br)cc2)c(Nc2ccc(Br)cc2)n1	PC-3 prostate	µM	26.4
COc1cccc(-c2nn(-c3ccccc3)cc2-c2ccnc(NCCNC(=O)Nc3cccc(C(F)(F)F)c3)c2)c1	PC-3 prostate	µM	5.24

Let us move to another entry and its TGI.
Asked: Return value of TGI for input `COc1ccc(-c2ccc(-c3ccc(C(=N)N)nc3)s2)cc1Cl` , no commentary.
Given back: 3.49

----------
tested on: CAKI-1 renal; experiment: NCI tumour cell line growth inhibition, 48 h
Below is a list of entries, each paired with its recorded TGI value.
Express your answer in µM, writing the number without its unit.

Reference set, count: 5
compound	TGI / µM
O=c1cc(NNc2cccc(F)c2)[nH]c(=O)[nH]1	29.9
COC1=C(C)C(=O)c2c(c(CCCl)c3n2CCC3O)C1=O (stereo not given)	3.95
COc1ccc(-c2ccc(-c3ccc(C(=N)N)nc3)s2)cc1Cl	3.12
CCN1C(=O)CCCc2c1ccc(Nc1ncc(Cl)c(NC3[C@@H](C(N)=O)[C@@H]4C=C[C@H]3C4)n1)c2OC (stereo not given in full)	4.48
CCCCCCNC(=O)Oc1ccc(/C(=C(/C)Cc2ccc(OC)cc2)c2ccc(OCCCN(C)C)cc2)cc1	27.8

Attention now shifts to the item below.
Asked: Look up and report measured TGI for this entry: `Cc1nc2c(o1)C(=Nc1ccccc1)c1ccccc1C2=O`
Given back: 36.7

----------
Readings of GI50 for the listed compounds
system: MALME-3M melanoma; assay: NCI tumour cell line growth inhibition, 48 h

compound	assayMetric	recordedResult
Cc1ccc(C(NC(=O)c2ccccc2)c2ccc3cccnc3c2O)cc1 (stereo not given)	GI50	0.441 µM
COc1ccc(S(=O)(=O)NC2=NCCN2C(=S)SN2CCn3c2nsc3=S)cc1	GI50	9.1 µM
Cc1cc2cc3ccc(N(C)C)cc3nc2cc1N	GI50	0.929 µM
FC(F)(F)c1ccc(-c2cnc(-n3cc(COCCN4CCCCC4)nn3)nc2NC2CCCCCC2)cc1	GI50	4.24 µM

Asked: Let me know recorded GI50 for `Cc1ccc(-c2c3c(nn2-c2ccc(S(N)(=O)=O)cc2)-c2ccccc2C3)cc1` , thanks.
Given back: 11.6 µM

----------
test system: A549 NSCLC; experiment: NCI tumour cell line growth inhibition, 48 h
Below is a list of entries, each paired with its recorded TGI value.

Consider the reported TGI for these compounds:
compound	recordedResult
COC12CCCN1c1ccn(Cc3ccccc3)c(=O)c1C2=O (stereo not given)	> 100 µM
COC(=O)C1C=CCON2CCc3c(n(C)c4ccccc34)C12 (stereo not given)	> 100 µM
COc1cc(CNc2cnc3cc(N)ccc3n2)cc(OC)c1OC	> 100 µM
Oc1ccc(-c2nc3ccc4[nH]ncc4c3c3c2CCCC3)c(F)c1	6.11 µM

Asked: Specify the recorded TGI for CCOc1cc(Br)c(C(C)NC(=O)c2cccc(OC)c2)cc1OCC (stereo not given) , system: A549 NSCLC.
Given back: > 100 µM

Asked: Find TGI for O=[N+]([O-])c1ccc(C2CC(c3ccccc3Cl)=Nc3ccccc3S2=O)cc1 (stereo not given) on A549 NSCLC and write it down.
Given back: 38 µM

Asked: Supply TGI measured with A549 NSCLC for O=C(CC1(O)C(=O)Nc2ccc(Br)cc21)c1ccc(Cl)cc1Cl (stereo not given) .
Given back: > 100 µM

Asked: Lab note: record TGI of `C=C1C(=O)O[C@H]2[C@H]1CC/C(COC(=O)CCSCCC(=O)OC/C1=C/CC[C@@]3(C)O[C@H]3[C@H]3OC(=O)C(=C)[C@@H]3CC1)=C\CC[C@@]1(C)O[C@@H]21` tested on A549 NSCLC.
Given back: 7.56 µM

Asked: Tell me TGI of NC1=NC(c2ccc(Cl)cc2)N(c2ccc(S(N)(=O)=O)cc2)C(N)=N1 (stereo not given) when tested on A549 NSCLC.
Given back: > 100 µM

Asked: # lookup: A549 NSCLC TGI, key = CCOP(=O)(OCC)C(c1ccccc1)N(C(=O)NC(F)(F)F)c1cccc(F)c1 (stereo not given)
Given back: > 100 µM

----------
# key: entry, value: log10 of TGI
system: LOX IMVI melanoma; test: NCI tumour cell line growth inhibition, 48 h
# values: log10(TGI), units µM

Examples with answers:
molecule	assayMetric	recordedResult
Cc1ccc(/C=C2\CN(C(=O)C(Cl)Cl)C/C(=C\c3ccc(C)cc3)C2=O)cc1	log10 of TGI	-0.70
O=C(/C=C/c1ccco1)c1ccc(NCc2nc3ccccc3[nH]2)cc1	log10 of TGI	1.47
C[N+](C)(C)CC1CCC/C1=N/O (stereo not drawn)	log10 of TGI	1.58
O=C1C=C2SC3C[C@@]24CC1[N+]1=c2c4c(c(O)c4c2=C(C=N4)CC1)N3	log10 of TGI	0.82
Cn1nc(-c2ccc(Cl)cc2)nc2c(=O)n(C)c(=O)nc1-2	log10 of TGI	0.21
O=C(CN1CCN(c2cc3c(cc2F)c(=O)c(C(=O)O)cn3C2CC2)CC1)Nc1nc(-c2ccc(Cl)cc2)cs1	log10 of TGI	1.28
CCC/C=C1\CCC(CN(C)C)C1=O (stereo not drawn)	log10 of TGI	1.32
CCCCCCCCCCCCCCCCNCCCN(C)CCCN	log10 of TGI	1.62

Asked: Print LOX IMVI melanoma log10 of TGI for `C=CCc1cc(-c2cc(CC=C)c(O)c(CN(CC)CC)c2)cc(CN(CC)CC)c1O` .
Given back: 1.50

Asked: Give LOX IMVI melanoma log10 of TGI for the following molecule: CSC1C(=O)Nc2ccc3ccccc3c21 (stereo not drawn)
Given back: 1.49

----------
test system: MDA-MB-435; test: NCI tumour cell line growth inhibition, 48 h
assayMetric: TGI

Known results for compounds:
compound	TGI
O=[N+]([O-])c1ccc(N/N=C/CC(O)(C(F)(F)F)C(F)(F)F)c([N+](=O)[O-])c1	> 10 µM
CCO[C@@]1(COCc2ccccc2)OC(=O)C[C@@H]1N1C(=O)OC[C@@H]1c1ccccc1	> 100 µM
COc1ccc(/C=C2\CCS(=O)(=O)c3ccccc3C2=O)cc1OC	> 100 µM
COc1ccc(S(=O)(=O)NC2=NCCN2C(=S)SN2CCn3c2nsc3=S)cc1	43.9 µM
Cn1nc(-c2ccc(Cl)cc2)nc2c(=O)n(C)c(=O)nc1-2	0.405 µM

Asked: State, in one line, measured TGI of `COc1cc(C2=NNC(=O)c3ccccc3N2c2nc(-c3cccs3)nc3ccc(Br)cc23)cc(OC)c1OC`
Given back: 68.5 µM

----------
tested on: ACHN renal; experiment: NCI tumour cell line growth inhibition, 48 h
Quick reference: TGI of the listed items.

molecule	TGI
Cc1ccc(C(NC(=O)c2ccccc2)c2ccc3cccnc3c2O)cc1 (stereo unspecified)	15.4 µM
CCCCCCCCCCCCc1ccc(S(=O)(=O)O)cc1.[Zn+2]	> 100 µM
COc1cc(OC)c2nccc(NCCCN(C)C)c2c1[N+](=O)[O-]	> 100 µM

Asked: Answer with reported TGI of CCOP(=O)(OCC)C(c1ccccc1)N(C(=O)NC(F)(F)F)c1cccc(F)c1 (stereo unspecified)
Given back: > 100 µM

Asked: Answer with the recorded TGI of `Cc1cn(CCCCCCC2=NCCCN2)c(=O)[nH]c1=O` only.
Given back: > 100 µM

Asked: Identify the reported TGI for the following entry. C[N+](C)(C)CC1CCC/C1=N/O (stereo unspecified)
Given back: > 100 µM

Asked: Determine from records and report TGI for `C=C1C(=O)O[C@H]2[C@H]3O[C@@H](C[C@@H]12)[C@@]1(C)CC[C@H](O1)[C@H](C)CCC[C@H]3C`
Given back: 2.84 µM

Asked: Item `CSCCCS/C1=C/CCCCCCCCCC1` : provide TGI
Given back: > 100 µM

----------
system: CCRF-CEM leukemia; assay: NCI tumour cell line growth inhibition, 48 h
assayMetric: TGI

compound	studyTarget	TGI
CCCCCCCCCCCCc1ccc(S(=O)(=O)O)cc1.[Zn+2]	CCRF-CEM leukemia	> 100 µM
CC(=O)OCc1cncn1S(=O)(=O)c1ccc(C)cc1	CCRF-CEM leukemia	> 100 µM
CCC/C=C1\CCC(CN(C)C)C1=O (stereo not given)	CCRF-CEM leukemia	1.97 µM
Cc1cc(-c2ccccc2)nc(Nc2nc3ccccc3o2)n1	CCRF-CEM leukemia	> 100 µM
C(=Nc1ccc(-c2nc3ccccc3[nH]2)cc1)c1ccc[nH]1	CCRF-CEM leukemia	85.1 µM

Asked: State, in one line, measured TGI of CSC1C(=O)Nc2ccc3ccccc3c21 (stereo not given)
Given back: 89.3 µM

Asked: In one line, give reported TGI of the entry `CC(=O)OC1=CC2=CC[C@H]3[C@@H]4CCC(=O)[C@@]4(C)CC(=O)[C@]3(S)[C@@]2(C)CC1` .
Given back: > 100 µM

Asked: Entry `COc1cc(C2=NNC(=O)c3ccccc3N2c2nc(-c3cccs3)nc3ccc(Br)cc23)cc(OC)c1OC` needs its TGI filled in; supply it.
Given back: > 100 µM

Asked: Read the entry `N[C@@H]1C(=O)N2C(C(=O)OC(c3ccccc3)c3ccccc3)=C(CCl)CS[C@H]12` and write its reported TGI.
Given back: > 61.6 µM

Asked: Quote TGI reported for `NNc1nncc2[nH]cnc12` please.
Given back: > 100 µM

Asked: State its TGI for this compound: COC(=O)C1=C(c2ccc(OC)c(OC)c2)OC(c2cc(OC)c(OC)c(OC)c2)C1 (stereo not given)
Given back: > 100 µM

Asked: Give reported TGI value for `C/C(=C\c1ccccc1)C(=O)NCc1ccc(C(=O)NCCc2ccccc2)cc1`
Given back: > 100 µM

Asked: Output measured TGI for this item: `O=c1cc(-c2c[nH]c3ccccc23)[nH]c2cc3c(cc12)OCO3`
Given back: > 100 µM

Asked: Identify TGI associated with the compound CCn1c(SC(C)C(=O)c2c(C)n(C)n(-c3ccccc3)c2=O)nc2ccccc2c1=O (stereo not given)
Given back: > 100 µM

Asked: Indicate its recorded TGI; the compound in question is `Cc1cccc(C(C)C)c1N1C(=O)C(=O)C(c2nc3ccccc3o2)C(=O)C1=O`
Given back: 63 µM
